# ASSAY_INFO: yeast display, Sf9 membrane polyspecificity reagent, FACS + sequencing; frameworks hold sequencing errors

SEQUENCE_CONTENT | polyreactivity (PSR sort gate)
QVQLVESGGGLVQAGGILRLSCADSGRTFGSNAMGWYRQAPGKERELVAAISGRTDSTYYADSVKGRFTISRDNAKNTVYLQMNSLKPEDTAVYYCAADSADVLYYYIRYNYWGQGTQVTVSS | low polyreactivity
QVQLVESGGGLVQAGGSLRLSCAASGSIFGYYAMGWYSQAPGKERELVAAFTASGGSTYYADSVKGRFTISRDNAKNTVYFQMNSLKPEDTAVYYCAAGTHTDYGRYYYWGQGTQVTVSS | low polyreactivity
QVQLVESGGGLVQAGGSLRLSCAASGINFYRYAMGWYRQAPGKERELVAAITGSGGNTYYADSVKGRFTISRDNAKNTVYLQMNSLKPEDTAVYYCAKRDYRHQYNYWGQGTQVTVSS | high polyreactivity
QVQLVESGGGLVQAGGSLRLSCAASGGIFRYYAMGWYRQAPGKERELVATITSGSITNYADSVKGRFTISRDNAKNTVYLQMNSLKPEDTAVYYCAALGAFPSLEFDYWGQGTQVTVSS | low polyreactivity
QVQLVESGGGLVQAGGSLRLSCAASGSTLYAYAMGWYRQAPGKERELVAGISSSGARTYYADSVKGRFTISRDNAKITVYLQMNSLKPEDTAVYYCAALAPVGTSKSYGYWGQGTQVTVSS | high polyreactivity
QVQLVESGGGLVQAGGSLRLICAASGRIIARNAMGWYRQAPGKERELVAAITARGARTYYADSVKGRFTISRDNAKNTVYLQMNSLKPEDTAVYYCAVVQGNVYYTGDDYWGQGTQVTVSS | high polyreactivity
QVQLVESGGGLVQAGGSLRLSCAASGFIFVPYAMGWYRQAPGKERELVARITWSGGRTYYADSVKGRFTISRDNAKNTVYLQMNSLKPEDTAVYYCNADVYGFDYWGQGTQVTVSS | high polyreactivity
QVQLVESGGGLVQAGGSLRLSCAASGSTFVIYAMGWYRQAPGKERELVASIRGRTGSTYYADSVKGRFTISRDNAKNTVYLQMNSLKPEDTAVYYCAATPGYKSKMDYWGQGTQVTVSS | high polyreactivity
QVQLVESGGGLVQAGGSLRLSCAASGITFYGYAMGWYRQAPGKERELVAAISRSGGSTYYADSVKGRFTISRDHAKNTVYVQMNSLKPEDTAVYYCNTDYGSSYNYWGQGTQVTVSS | high polyreactivity
QVQLVESGGGLVQAGGSLRLSCAASGSIFYSYVMGWYRQAPGKERELVAAISRNGQSTYYADSVKGRFTISRDNAKNTVYLQMNSLKPEDTAVYYCAARSRDKYDYWGQGTQVTVSS | high polyreactivity
QVQLEESGGGLVQAGGSLRLSCAASGITSPAYAMGWYRQAPGKEREFVAAISSSGGSTYYADSVKGRFTISRDNAKNTVYLQMNSLKPEDTAVYYCAVRGRISSVSRYGYWGQGTQVTVSS | high polyreactivity

----------
# ASSAY_INFO: yeast display, Sf9 membrane polyspecificity reagent, FACS + sequencing; frameworks hold sequencing errors

SEQUENCE_CONTENT | polyreactivity (PSR sort gate)
QVQLVESGGGLVQAGGSLRLSCAASGRIFRYNAMGWYRQAPGKERELVATITSGGNTNYADSVKGRFTISRDNAKNTVYLQMISLKPEDTAVYYCNAAEPQWYDAYDYWGQGTQVTVSS | low polyreactivity
QVQLVESGGGLFQAGGSLRLTCAASGITFYYYAMGWYRQAPGKERELVAAISVRGTRTFYADCVKWRFTISRDNAKNTVYLQMNSLKPEDTEVYYCNKSVSNDDGLEYWGQGTQVTVSS | high polyreactivity
QVQLVESGGGLVQAGGSLRLTSAASGRTFFRYAMRWYRQAPGKERELVAAISRGGGRTYYADSVKGRFTISRDNAKNTVYLQMNSLKPEDTAVYYCNKTERSGSNYLGQGTQVTVSS | high polyreactivity
QVQLVESGGGLVHAGGSLRLSCAASGFTSYENAMGWYRQAPGKEREFVAAISYIAGNTYYSDSVKGRFTISRDNAKNTVYLQMNSLKPEDTAVYYCAKTKYILPGNAYVNYDTTAYDYWGQGTQVTVSS | low polyreactivity
QVQLVESVGGLVQAGGSLRLSCAASALTFQNNAMGWYRQAPGKEREFVATITSVGRTNYADSVKGRFTISRDNAKNTVYLQMNSLNPEDTAVYYCAASKARWPRGGSKYYYWGQGTQVTVSS | high polyreactivity

----------
# ASSAY_INFO: yeast display, Sf9 membrane polyspecificity reagent, FACS + sequencing; frameworks hold sequencing errors

SEQUENCE_CONTENT | polyreactivity (PSR sort gate)
QVQLVESGVGLVQAGGTLRLSCAASGSIFDPYAMGWYRQAPGKERELVAAITYSVGGTTYYADSVKGRFTISRDNAKNTVYLQMNSLKPEDTAVYYCAAEWWGNPFDYWGQGTQVTVST | high polyreactivity
QVQLVESGGGLVQAGGSLRLSCAASGFTFPPYAMGWYIQAPGKERELVAGISWIGSSTYYADSVKGRFTISRDNAKNTVYLQMNSLKPEDTAVYYCNARYLLFAGGRRYYWGQGTQVTVSS | high polyreactivity
QVQHVESAGGLVQAGGSLRLSCAASGSIFPYNAMGWYRQAPGKERELVAAISYSGSTTYYADSVKRRFTISRDNSKNTVYLQMNSLKPEDTAVYYCNTLSWYQYDYWGQGTQVTVSS | high polyreactivity
QVQLVESGGGLVQAGGSLRLSCAASGRIFQQYAMGWSRKAPGKERELVAAISRNGGSTYYADSVKGRFTISRDNAKNTVYLQMNRLKTEDTAVYYCNARRNAASTLRKDYGYWGQGTQVSVSS | high polyreactivity

----------
# ASSAY_INFO: yeast display, Sf9 membrane polyspecificity reagent, FACS + sequencing; frameworks hold sequencing errors

SEQUENCE_CONTENT | polyreactivity (PSR sort gate)
QVQLVESGGRLVQAGGSLRLSCAASGRTFSFYAMGWYRQAPGQERELVAGIDWDDGSTSYADSVKGRFTISRDNAKNSVYLQMNSLKPEDTAVYYCAADIGYDDYNDYDYWGQGTQVTVSS | low polyreactivity
QVQLVESGGGLVQAGGSLRLSCAASGFTFYAYAMGWYRQAPGKERELVAAITWDDDSTSYADSVKGRFTISRDNAKNTVYLQMNSLKPEDTAVYYCAADSIRHRRYKYDYWGQGTQVTVSS | low polyreactivity

----------
# ASSAY_INFO: yeast display, Sf9 membrane polyspecificity reagent, FACS + sequencing; frameworks hold sequencing errors

SEQUENCE_CONTENT | polyreactivity (PSR sort gate)
QVQLVESGGGLVQAGGSLRLTCAATGIIFSYYAKGWYRQAPGKERELVAAISWGGGSTFYADSVKGRFTISRDNAKKTVSLQMKSLKPEDNAVLFCDADYGGDFGMDYCGQGTQVTVSS | low polyreactivity
QVQLVESGGGLVLAGGSLRLSCAASEFIFARNGMGWYIQAPGKERELVAAITKSGSTYADSVKGRFTISRDNAKNTVYLQMNSLKPEDTAVYYCNKDPGNVSSFTGGGYWGQGTQVTVSS | low polyreactivity

----------
# ASSAY_INFO: yeast display, Sf9 membrane polyspecificity reagent, FACS + sequencing; frameworks hold sequencing errors
RESULT_TYPE: polyreactivity (PSR sort gate)

SEQUENCE_CONTENT | RESULT
QVQLVESGGGLVQAGGSHRLSCAASGRTFPFYAMGWYRQAPGTERELVADITSSGGSTYYADSVKGRFTISRDNAKNTVYLQMNSLKPEDSAVYYCAADPIDISYWEFDYWGQGTQVTVSS | low polyreactivity
QVQLVESGGALDQAGGSLRLTCAASGFIFYFYAKGWYRQAPGKERELVAAIDSAGSTNYADSVKGRFTISRDNAKNTVYLQMNSLKPEDTAVYYCAREPDSYVSWRSRYNYWGQGTQVTVSS | low polyreactivity
QVQLVESGGGLVQAGGSLRLSCAASGGILGWSAMGWSRQAPGKERELVAAIRDSGGSTYYADSVKGRFTIARDNAKKTVYLQMNSLKPEDTAVYYCAAYYIASRSTRYYYWGQGTQVTVSS | high polyreactivity
QVQLVESGGGLVQAGGSLRLSCAASGFTFTKYAMGWYRQAPVKERELVADITSGTSTYNADSVKGRFTISRDNAKNTVYLQMNSLKPEDTAVYYCAAPLYGRYSYGYWGQGTQVTVSS | high polyreactivity
QVQLVESGGGLVQAGGSLRLSCAASGRIFYPYAMGWYRQAPGQERELVAVINGSGGSTYYADSVKGRFTISRDNAKNTVYLQMNSLKPEDTAVYYCAAVGAYSRNEYDYWGQGTQVTVSS | high polyreactivity
QVQLVESGGGLVQAGGSLRLSCAASGRIFASYAMGWYRQAPGKERELVAAISAGGGSRTYYADSVKGRFTISRDNAKNTVYLQMNSLKPEDTAVYYCNTANSWLRQYYYWGQGTQVTVSS | high polyreactivity
QVQLVESGGGLVQAGGSLRLSCAASGFTFGTNAMGWYRQAPGKEMELVAAITWSGGRTYYADSVKGRFTISRDNAKNTVYLQMNSRKQEDTAVYYCAKQYYRNKYEYWGQGTQVTVSS | high polyreactivity
QVQHVESVGGLDQAGRSLRLSCAASGSTFTPYAMGWYRQAPGKESELVAGITGNGGSTRYADSVKGRFTISRDNAKKTVYLQMNSLKPEDTAVYYCAARWTRQRYRTSYYSWGQGTQVTVSS | high polyreactivity
QVQLVESCGGLVQAGGSLRLSCAASGITYVYYAMGWYRQAPGKERELVAGITSGTSTYYADSVKGRFTISRDNAKNTVYLQINSLKPEDTAVYYCATGYRRGSTYGYWGQGTQVTVSS | low polyreactivity
QVQLVESGGGIVQAGGSLRLSCAASGSTFYDYAMGWYRQAPGKETELVAAITRGGSTYYADSVKGRFTISRDNAKNTVYLQMNILKPEDTAVFYCAKYLTCAAYLVPEYDYWGQGTQVSVSS | low polyreactivity
QVQLVESGVGLVQAGGSLRLSCAASGRIFYGYAMGWYRQAPGKEREFVARINVSGTSTFYADSVKGRFTISRDNAKNTVYLQMSSLKPEDTAVYDCAARGLPPNDYCYVHGYIMDYWGQGTQVTVSS | low polyreactivity
